src = the kinase profiling compilation of Christmann-Franck et al. (2016)

Provide the reported kinase still bound, per cent of control of each item.
- measured.target: NEK7 (human) (UniProt Q8TDX7)
- Sequence (Q8TDX7 whole entry, looked up): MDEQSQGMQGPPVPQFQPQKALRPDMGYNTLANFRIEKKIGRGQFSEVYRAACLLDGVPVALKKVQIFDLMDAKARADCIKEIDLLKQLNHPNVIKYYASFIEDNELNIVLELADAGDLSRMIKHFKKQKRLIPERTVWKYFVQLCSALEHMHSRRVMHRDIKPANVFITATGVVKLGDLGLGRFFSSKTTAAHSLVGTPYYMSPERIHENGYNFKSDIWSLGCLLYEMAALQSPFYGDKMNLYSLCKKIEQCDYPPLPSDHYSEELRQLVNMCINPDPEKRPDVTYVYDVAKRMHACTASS
- experiment.summary: KINOMEscan competition binding
- test.context: compound 10.0 µM
Value and unit, in that order.

Given the entry "CCC(=O)N1CCN(c2ccc(-n3c(=O)ccc4cnc5ccc(-c6cnc7ccccc7c6)cc5c43)cc2C(F)(F)F)CC1" , report its measured kinase still bound, per cent of control.
90%

Consider the compound "CC(C)n1nc(-c2cc3cc(O)ccc3[nH]2)c2c(N)ncnc21" and give its measured kinase still bound, per cent of control.
100%

Please report the recorded kinase still bound, per cent of control for "COC(=O)Nc1ccc(-c2nc(N3CCOCC3)c3cnn(C4CCN(C(=O)OC)CC4)c3n2)cc1" .
77%

I have this compound here, "COc1ccc(-c2ccc3c(N4CCOCC4)nc(N4C[C@@H](C)O[C@@H](C)C4)nc3n2)cc1CO" , and I need its recorded kinase still bound, per cent of control.
100%

###

- measured.target: MAP4K3 (human)
- experiment.summary: KINOMEscan competition binding
- test.context: compound 10.0 µM
outcome.measure: kinase still bound, per cent of control (%)
The response must be a number in % with no trailing unit.

Can you look up the measured kinase still bound, per cent of control of "CCC(=O)N1CCN(c2ccc(-n3c(=O)ccc4cnc5ccc(-c6cnc7ccccc7c6)cc5c43)cc2C(F)(F)F)CC1" for me?
1.9

Look at this molecule and give its reported kinase still bound, per cent of control. "COC(=O)Nc1ccc(-c2nc(N3CCOCC3)c3cnn(C4CCN(C(=O)OC)CC4)c3n2)cc1"
74

Requested read-out: kinase still bound, per cent of control. Entry: "COc1ccc(-c2ccc3c(N4CCOCC4)nc(N4C[C@@H](C)O[C@@H](C)C4)nc3n2)cc1CO"
85

Look at this molecule and give its reported kinase still bound, per cent of control. "CC(C)n1nc(-c2cc3cc(O)ccc3[nH]2)c2c(N)ncnc21"
52

###

- measured.target: UniProtKB Q13131
- Sequence (Q13131 whole entry, looked up): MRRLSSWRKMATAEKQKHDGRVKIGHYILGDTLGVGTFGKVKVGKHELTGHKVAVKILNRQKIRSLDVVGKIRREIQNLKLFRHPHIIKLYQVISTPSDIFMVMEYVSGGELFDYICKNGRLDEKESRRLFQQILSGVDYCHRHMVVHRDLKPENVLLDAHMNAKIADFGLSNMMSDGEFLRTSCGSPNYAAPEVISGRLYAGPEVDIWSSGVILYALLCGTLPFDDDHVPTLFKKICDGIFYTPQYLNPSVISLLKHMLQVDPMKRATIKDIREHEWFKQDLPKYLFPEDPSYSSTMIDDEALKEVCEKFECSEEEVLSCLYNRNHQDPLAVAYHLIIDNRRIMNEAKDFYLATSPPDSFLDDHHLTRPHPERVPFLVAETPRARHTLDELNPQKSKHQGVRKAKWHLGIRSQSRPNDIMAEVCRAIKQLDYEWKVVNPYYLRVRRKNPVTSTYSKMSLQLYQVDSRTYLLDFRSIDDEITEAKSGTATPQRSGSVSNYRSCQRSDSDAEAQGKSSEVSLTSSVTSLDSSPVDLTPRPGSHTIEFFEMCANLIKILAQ
- experiment.summary: KINOMEscan competition binding
- test.context: compound 10.0 µM
So I've got a bunch of compounds here, and I need their kinase still bound, per cent of control values.
Give just the numeric value; % need not be written.

What value of measured kinase still bound, per cent of control is listed for "COc1ccc(-c2ccc3c(N4CCOCC4)nc(N4C[C@@H](C)O[C@@H](C)C4)nc3n2)cc1CO" ?
97

Entry "COC(=O)Nc1ccc(-c2nc(N3CCOCC3)c3cnn(C4CCN(C(=O)OC)CC4)c3n2)cc1" has what kinase still bound, per cent of control?
100

# get_value(readout='kinase still bound, per cent of control', item= "CCC(=O)N1CCN(c2ccc(-n3c(=O)ccc4cnc5ccc(-c6cnc7ccccc7c6)cc5c43)cc2C(F)(F)F)CC1" )
91

Returns the measured kinase still bound, per cent of control for the input compound. Input: "CC(C)n1nc(-c2cc3cc(O)ccc3[nH]2)c2c(N)ncnc21"
43

###

- measured.target: AAK1 (human) (UniProt Q2M2I8)
- Sequence (Q2M2I8 whole entry, looked up): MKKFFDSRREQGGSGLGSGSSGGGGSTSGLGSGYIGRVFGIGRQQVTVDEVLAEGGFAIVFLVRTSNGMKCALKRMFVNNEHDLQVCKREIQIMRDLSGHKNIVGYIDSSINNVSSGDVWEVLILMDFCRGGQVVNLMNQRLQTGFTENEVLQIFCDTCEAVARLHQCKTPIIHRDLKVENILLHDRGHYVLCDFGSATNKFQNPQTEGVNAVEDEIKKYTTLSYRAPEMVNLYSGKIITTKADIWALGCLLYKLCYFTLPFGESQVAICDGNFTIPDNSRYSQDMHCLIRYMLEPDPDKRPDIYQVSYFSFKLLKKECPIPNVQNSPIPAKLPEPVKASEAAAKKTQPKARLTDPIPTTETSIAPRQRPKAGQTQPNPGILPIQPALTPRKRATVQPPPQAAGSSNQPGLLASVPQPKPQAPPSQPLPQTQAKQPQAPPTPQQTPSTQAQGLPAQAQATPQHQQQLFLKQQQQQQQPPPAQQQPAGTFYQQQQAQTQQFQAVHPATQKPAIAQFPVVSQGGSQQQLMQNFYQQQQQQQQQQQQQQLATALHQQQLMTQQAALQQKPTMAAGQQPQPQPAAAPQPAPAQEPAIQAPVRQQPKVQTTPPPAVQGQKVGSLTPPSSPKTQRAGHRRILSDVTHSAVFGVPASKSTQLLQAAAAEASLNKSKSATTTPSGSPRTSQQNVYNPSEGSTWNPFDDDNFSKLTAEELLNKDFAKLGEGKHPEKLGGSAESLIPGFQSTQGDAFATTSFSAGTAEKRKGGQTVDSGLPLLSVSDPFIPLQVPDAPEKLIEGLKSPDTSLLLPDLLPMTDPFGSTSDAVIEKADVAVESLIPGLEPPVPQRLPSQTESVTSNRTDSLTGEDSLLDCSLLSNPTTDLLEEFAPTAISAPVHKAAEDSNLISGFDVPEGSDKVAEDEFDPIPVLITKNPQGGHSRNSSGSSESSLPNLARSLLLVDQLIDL
- experiment.summary: KINOMEscan competition binding
- test.context: compound 10.0 µM
outcome.measure: kinase still bound, per cent of control (%)
State just the number; it will be interpreted in %.

Which kinase still bound, per cent of control is reported for this compound? "COc1ccc(-c2ccc3c(N4CCOCC4)nc(N4C[C@@H](C)O[C@@H](C)C4)nc3n2)cc1CO"
93

Give the measured kinase still bound, per cent of control of "CC(C)n1nc(-c2cc3cc(O)ccc3[nH]2)c2c(N)ncnc21" .
31

Any idea what its kinase still bound, per cent of control is? The compound is "CCC(=O)N1CCN(c2ccc(-n3c(=O)ccc4cnc5ccc(-c6cnc7ccccc7c6)cc5c43)cc2C(F)(F)F)CC1"
75

Recorded kinase still bound, per cent of control for "COC(=O)Nc1ccc(-c2nc(N3CCOCC3)c3cnn(C4CCN(C(=O)OC)CC4)c3n2)cc1" , please?
86

###

- measured.target: INSR (human)
- experiment.summary: KINOMEscan competition binding
- test.context: compound 10.0 µM
Record form. Attribute: kinase still bound, per cent of control. Fill in for each entry.
Output spec: scalar in %, unitless text.

Query (molecule): "CC(C)n1nc(-c2cc3cc(O)ccc3[nH]2)c2c(N)ncnc21" ; field requested: kinase still bound, per cent of control
100

So what's the measured kinase still bound, per cent of control for this one? "CCC(=O)N1CCN(c2ccc(-n3c(=O)ccc4cnc5ccc(-c6cnc7ccccc7c6)cc5c43)cc2C(F)(F)F)CC1"
7.6

Which measured kinase still bound, per cent of control value corresponds to "COc1ccc(-c2ccc3c(N4CCOCC4)nc(N4C[C@@H](C)O[C@@H](C)C4)nc3n2)cc1CO" ?
97

Which kinase still bound, per cent of control value is on record for "COC(=O)Nc1ccc(-c2nc(N3CCOCC3)c3cnn(C4CCN(C(=O)OC)CC4)c3n2)cc1" ?
72

###

- measured.target: MAP2K1 (human)
- experiment.summary: KINOMEscan competition binding
- test.context: compound 10.0 µM
outcome.measure: kinase still bound, per cent of control
Please don't drop the unit; write it after the number.

Look up kinase still bound, per cent of control: "COC(=O)Nc1ccc(-c2nc(N3CCOCC3)c3cnn(C4CCN(C(=O)OC)CC4)c3n2)cc1"
100%

Look up kinase still bound, per cent of control for this compound: "CCC(=O)N1CCN(c2ccc(-n3c(=O)ccc4cnc5ccc(-c6cnc7ccccc7c6)cc5c43)cc2C(F)(F)F)CC1"
100%

Given the compound "COc1ccc(-c2ccc3c(N4CCOCC4)nc(N4C[C@@H](C)O[C@@H](C)C4)nc3n2)cc1CO" , what is its reported kinase still bound, per cent of control?
100%

Look up kinase still bound, per cent of control for this compound: "CC(C)n1nc(-c2cc3cc(O)ccc3[nH]2)c2c(N)ncnc21"
0.25%

###

- measured.target: UniProt O14757
- Sequence (O14757 whole entry, looked up): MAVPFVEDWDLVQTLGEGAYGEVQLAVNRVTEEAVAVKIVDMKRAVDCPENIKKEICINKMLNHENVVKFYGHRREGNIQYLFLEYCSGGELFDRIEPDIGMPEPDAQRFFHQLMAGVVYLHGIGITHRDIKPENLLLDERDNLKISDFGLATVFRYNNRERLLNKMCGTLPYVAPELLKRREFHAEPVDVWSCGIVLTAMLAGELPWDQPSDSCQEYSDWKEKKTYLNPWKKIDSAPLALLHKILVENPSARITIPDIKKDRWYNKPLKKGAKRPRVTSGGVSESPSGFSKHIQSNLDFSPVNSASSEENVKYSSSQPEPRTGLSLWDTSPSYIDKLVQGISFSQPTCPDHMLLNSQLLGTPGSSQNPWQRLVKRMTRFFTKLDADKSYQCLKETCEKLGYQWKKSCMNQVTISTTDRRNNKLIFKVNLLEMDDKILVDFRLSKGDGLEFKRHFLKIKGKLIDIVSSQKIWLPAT
- test.context: compound 1.0 µM
outcome.measure: per cent of control (%)
Just the number please, in %, no unit attached.

I am curious: what per cent of control value has been reported for "CC(C)n1nc(-c2cc3cc(O)ccc3[nH]2)c2c(N)ncnc21" ?
91

So what's the measured per cent of control for this one? "COc1ccc(-c2ccc3c(N4CCOCC4)nc(N4C[C@@H](C)O[C@@H](C)C4)nc3n2)cc1CO"
87

Reported per cent of control for "CCC(=O)N1CCN(c2ccc(-n3c(=O)ccc4cnc5ccc(-c6cnc7ccccc7c6)cc5c43)cc2C(F)(F)F)CC1" : what is it?
106

per cent of control for "COC(=O)Nc1ccc(-c2nc(N3CCOCC3)c3cnn(C4CCN(C(=O)OC)CC4)c3n2)cc1" ?
96

###

Provide the recorded kinase still bound, per cent of control for the entries that follow.
- measured.target: VRK2 (human)
- experiment.summary: KINOMEscan competition binding
- test.context: compound 10.0 µM
Unit % implied. Number only.

What reported kinase still bound, per cent of control corresponds to "COc1ccc(-c2ccc3c(N4CCOCC4)nc(N4C[C@@H](C)O[C@@H](C)C4)nc3n2)cc1CO" on VRK2 (human)?
87

Form: Entry = "COC(=O)Nc1ccc(-c2nc(N3CCOCC3)c3cnn(C4CCN(C(=O)OC)CC4)c3n2)cc1" | System = VRK2 (human) | kinase still bound, per cent of control = ____
100

Query kinase still bound, per cent of control on VRK2 (human) for "CC(C)n1nc(-c2cc3cc(O)ccc3[nH]2)c2c(N)ncnc21"
100

API: value(readout= kinase still bound, per cent of control, system= VRK2 (human), query= "CCC(=O)N1CCN(c2ccc(-n3c(=O)ccc4cnc5ccc(-c6cnc7ccccc7c6)cc5c43)cc2C(F)(F)F)CC1" )
100

###

- measured.target: EPHA8 (human)
- experiment.summary: KINOMEscan competition binding
- test.context: compound 10.0 µM
outcome.measure: kinase still bound, per cent of control
Phrase the answer as number then unit, nothing more needed.

Return kinase still bound, per cent of control measured with EPHA8 (human) given this compound: "COC(=O)Nc1ccc(-c2nc(N3CCOCC3)c3cnn(C4CCN(C(=O)OC)CC4)c3n2)cc1"
97%

Test system EPHA8 (human); read-out kinase still bound, per cent of control; what value for "CCC(=O)N1CCN(c2ccc(-n3c(=O)ccc4cnc5ccc(-c6cnc7ccccc7c6)cc5c43)cc2C(F)(F)F)CC1" ?
71%

Checklist item: kinase still bound, per cent of control tested on EPHA8 (human), entry "COc1ccc(-c2ccc3c(N4CCOCC4)nc(N4C[C@@H](C)O[C@@H](C)C4)nc3n2)cc1CO" , value?
80%

Recall the recorded kinase still bound, per cent of control for "CC(C)n1nc(-c2cc3cc(O)ccc3[nH]2)c2c(N)ncnc21" with EPHA8 (human) and state it.
1.2%

###

Please provide measured per cent of control for the entries that follow.
- measured.target: CDK4 CCND1 (human) (UniProt P11802+P24385)
- Sequence (P11802 whole entry, looked up): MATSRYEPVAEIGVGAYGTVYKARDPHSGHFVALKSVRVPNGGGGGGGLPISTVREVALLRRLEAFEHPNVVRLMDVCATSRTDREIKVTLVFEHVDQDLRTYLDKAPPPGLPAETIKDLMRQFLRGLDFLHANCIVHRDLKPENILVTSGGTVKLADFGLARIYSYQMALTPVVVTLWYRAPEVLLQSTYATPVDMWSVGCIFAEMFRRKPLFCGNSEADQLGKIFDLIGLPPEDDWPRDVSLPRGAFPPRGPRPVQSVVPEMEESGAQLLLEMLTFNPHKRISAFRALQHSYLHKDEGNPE
- Sequence (P24385 whole entry, looked up): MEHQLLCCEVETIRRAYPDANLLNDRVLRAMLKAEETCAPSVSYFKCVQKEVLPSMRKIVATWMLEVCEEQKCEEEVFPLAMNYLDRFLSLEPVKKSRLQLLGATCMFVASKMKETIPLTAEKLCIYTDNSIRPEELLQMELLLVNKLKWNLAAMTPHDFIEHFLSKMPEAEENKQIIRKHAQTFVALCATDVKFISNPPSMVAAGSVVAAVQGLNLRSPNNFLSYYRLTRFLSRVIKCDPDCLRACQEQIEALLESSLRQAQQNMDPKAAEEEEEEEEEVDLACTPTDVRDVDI
- experiment.summary: KINOMEscan competition binding
- test.context: compound 10.0 µM
Response body: numeric value in %, unit text excluded.

Could you share which per cent of control value was measured for "CCC(=O)N1CCN(c2ccc(-n3c(=O)ccc4cnc5ccc(-c6cnc7ccccc7c6)cc5c43)cc2C(F)(F)F)CC1" ?
100

Param item = "CC(C)n1nc(-c2cc3cc(O)ccc3[nH]2)c2c(N)ncnc21" ; retrieve measured per cent of control.
60

What value of per cent of control has been recorded for this entry: "COC(=O)Nc1ccc(-c2nc(N3CCOCC3)c3cnn(C4CCN(C(=O)OC)CC4)c3n2)cc1"
100

Which per cent of control value is on record for "COc1ccc(-c2ccc3c(N4CCOCC4)nc(N4C[C@@H](C)O[C@@H](C)C4)nc3n2)cc1CO" ?
70
